assayed_target: rh-α5β1 (Homo sapiens, UniProt P05556+P08648)
Sequence (P08648 42-894 limits assumed): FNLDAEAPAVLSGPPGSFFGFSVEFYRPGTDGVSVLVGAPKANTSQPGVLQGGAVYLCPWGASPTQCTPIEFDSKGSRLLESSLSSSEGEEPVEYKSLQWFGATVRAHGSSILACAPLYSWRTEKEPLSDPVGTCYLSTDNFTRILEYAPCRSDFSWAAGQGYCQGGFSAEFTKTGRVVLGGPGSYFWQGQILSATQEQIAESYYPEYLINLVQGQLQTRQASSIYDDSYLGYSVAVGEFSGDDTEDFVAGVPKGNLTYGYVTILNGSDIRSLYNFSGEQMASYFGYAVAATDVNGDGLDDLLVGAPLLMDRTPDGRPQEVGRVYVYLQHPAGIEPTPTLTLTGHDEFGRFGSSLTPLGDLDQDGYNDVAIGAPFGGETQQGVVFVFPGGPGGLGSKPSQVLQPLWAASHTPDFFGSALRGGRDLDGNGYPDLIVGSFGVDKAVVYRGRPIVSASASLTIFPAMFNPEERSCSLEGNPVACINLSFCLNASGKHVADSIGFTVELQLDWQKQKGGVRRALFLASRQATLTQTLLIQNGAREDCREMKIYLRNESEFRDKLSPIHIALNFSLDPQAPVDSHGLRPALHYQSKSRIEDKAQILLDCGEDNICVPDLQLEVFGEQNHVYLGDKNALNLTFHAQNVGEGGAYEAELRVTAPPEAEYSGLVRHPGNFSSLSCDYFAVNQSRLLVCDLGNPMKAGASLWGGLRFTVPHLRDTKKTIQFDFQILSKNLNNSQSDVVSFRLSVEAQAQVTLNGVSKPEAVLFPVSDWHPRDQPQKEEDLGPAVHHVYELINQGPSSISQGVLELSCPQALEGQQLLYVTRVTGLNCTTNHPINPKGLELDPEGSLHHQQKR
Sequence (P08648 895-995 limits assumed): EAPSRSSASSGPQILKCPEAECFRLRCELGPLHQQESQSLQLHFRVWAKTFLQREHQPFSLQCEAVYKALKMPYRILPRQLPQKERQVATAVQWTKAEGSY
Sequence (P05556 21-728 limits assumed): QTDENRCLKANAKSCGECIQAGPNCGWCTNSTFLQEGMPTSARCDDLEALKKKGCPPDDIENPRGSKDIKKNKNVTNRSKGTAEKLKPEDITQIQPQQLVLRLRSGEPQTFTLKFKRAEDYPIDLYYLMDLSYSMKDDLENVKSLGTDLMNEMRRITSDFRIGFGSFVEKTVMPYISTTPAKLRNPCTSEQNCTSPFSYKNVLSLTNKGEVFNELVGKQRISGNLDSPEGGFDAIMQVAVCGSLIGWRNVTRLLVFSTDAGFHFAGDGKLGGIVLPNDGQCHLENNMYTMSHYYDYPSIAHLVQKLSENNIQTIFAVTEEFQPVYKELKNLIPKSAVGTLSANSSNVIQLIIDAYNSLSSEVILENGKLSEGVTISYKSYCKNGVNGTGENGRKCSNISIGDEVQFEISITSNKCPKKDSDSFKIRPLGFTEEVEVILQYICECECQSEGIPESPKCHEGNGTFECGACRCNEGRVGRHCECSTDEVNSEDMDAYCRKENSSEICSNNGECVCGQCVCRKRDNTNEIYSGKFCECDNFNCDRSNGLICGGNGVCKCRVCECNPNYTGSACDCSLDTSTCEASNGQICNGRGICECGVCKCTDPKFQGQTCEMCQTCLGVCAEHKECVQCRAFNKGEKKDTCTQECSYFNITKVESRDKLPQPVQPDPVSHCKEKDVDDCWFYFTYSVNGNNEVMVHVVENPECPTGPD
test_details: Competition binding studies by Biolayer Interferometry (epitope groups)
setup_conditions: immobilized mAb A2-7A05; secondary mAb pre-mixed with 20 nM rh-α5β1; relative to antigen alone
assay_endpoint: % Response (%)
Report as a plain number; the unit % is understood.

Answered examples (2):
A2-5D10: anti-α5β1 antibody, VH SEQ ID NO:51, VL SEQ ID NO:52 (antibody, V domains shown, A2-5D10 VH Sequence; A2-5D10 VL Sequence) VH: QVQLKESGPGLVAPSQSLSITCTISGFSLTSYGVHWVRQPPGKGLEWLVVIWSDGSTTYNSTLKSRLSISKDNSKSQVFLKMNSLQTDDTAMYYCARHYDYDGDWFAYWGQGTLVTVSA VL: QILLTQSPAIMSASLGERVTMTCTASSSVSSRCLHWYQQKPGSSPKLWIYSTSNLASGVPARFRGSGSGTSYSLTISSMEAEDAATYYCHQYYRSPPTFGGGTKLEIK | 448.38
A2-7F01: anti-α5β1 antibody, VH SEQ ID NO:91, VL SEQ ID NO:92 (antibody, V domains shown, A2-7F01 VH Sequence; A2-7F01 VL Sequence) VH: QVQLQQPGAELVKPGASVKLSCKASGYTFTIYWINWVKQRPGQGLEWIGNIYPGSSSTNYNEKFKTKATLTVDTSSSTAYMQLSSLTSDDSAVYYCAITGTGGFAYWGQGTLVTVSA VL: ENVLTQSPAIMSASLGEKVTMSCRASSSVNYMYWYQQKSDASPKLWIYFTSSLAPGVPTRFSGSGSGNSFSLTISSMEGEDAATYYCQQLTGSPFTFGSGTRLEIK | −472.70

Problem: Quick one: % Response for C-14D12: anti-α5β1 antibody, VH SEQ ID NO:109, VL SEQ ID NO:110; tested as mouse hybridoma antibody and as human IgG4 chimera (antibody, V domains shown, C-14D12 VH Sequence; C-14D12 VL Sequence, tested as mouse hybridoma antibody and as human IgG4 chimera) VH: QVQLKESGPDLVAPSQSLSITCTVSGFSLTDYGVHWVRQPPGKGLEWLVVIWSDGSTTYNSALKSRLSITKDTSKRQVFLKMNSLQTDDTAMYYCARHAPSFIRYGSRYDALDYWGQGTSVTVSS VL: QIVLTQSPAIMSASLGERVTLTCTASSSVTSSFLHWYQQKPGSSPKLWIYSTSNLASGVPARFSGSGSGTSYSLTISSMEAEDAATYYCHQYHRSPPTFGGGTKLEIK ?
Solution: 309.19
